# System: BT-549
# assay.comment: NCI tumour cell line growth inhibition, 48 h
The source made the active and inactive calls. No stated cut-off is given here; in the data, active = GI50 up to about 1.1 µM and inactive = higher.
Pick one: T = active, F = inactive

Please review the following examples before continuing.
>>> class_name("O=[N+]([O-])c1cccc(-c2csc(N/N=C3\\NC/C(=C/c4ccc5c(c4)OCO5)S3)n2)c1")
"F"
>>> class_name("CO[C@H]1C[C@@H]2CC[C@@H](C)[C@@](O)(O2)C(=O)C(=O)N2CCCC[C@H]2C(=O)O[C@H]([C@H](C)C[C@@H]2CC[C@@H](OC(=O)C(C)(CO)CO)[C@H](OC)C2)CC(=O)[C@H](C)/C=C(\\C)[C@@H](O)[C@@H](OC)C(=O)[C@H](C)C[C@H](C)/C=C/C=C/C=C/1C [TEMSIROLIMUS]")
"T"
>>> class_name("CCCCCCCCCCC(O)C1CCC(C2CCC(C(O)CCCCC(O)CCCCCC(O)CC3=CC(C)OC3=O)O2)O1 (stereo not given)")
"F"
>>> class_name("FC(F)(F)c1ccc(C2ON=C(c3ccccc3)N2C23CC4CC(CC(C4)C2)C3)cc1 (stereo not given)")
"F"

Consider the record given below.
**Q:** Please share the test call associated with Cc1cc2c3ccccc3n(C)c2c2c1C(=O)C=CC2=O .
**A:** F

====

# Tested on: Malme-3M
# assay.comment: NCI tumour cell line growth inhibition, 48 h
Calls of active or inactive are those of the source. Cut-off read from the data, not from the text of the source: active = GI50 up to about 1.1 µM and inactive = higher.
Pick one: true (active), false (inactive)

Please review the following examples before continuing.
>>> class_name("CC(=O)OCC1OC(n2c(-c3cccs3)c3c(c(C#N)c2=S)-c2ccccc2CC3)C(OC(C)=O)C(OC(C)=O)C1OC(C)=O (stereo not given)")
"false"
>>> class_name("O=C(NCc1cccnc1)C1COc2cc(-c3cc(=O)c4ccccc4o3)ccc2O1 (stereo not given)")
"false"
>>> class_name("CCOC(=O)CCc1c(C(=O)OCC)[nH]c(/C=C2\\NC(=O)C(C)=C2CC)c1C")
"false"
>>> class_name("Cc1cc2c(cc1-c1cc3c(cc1C)C(C(C)C)=C(O)C(=O)/C3=C\\Nc1c(C)n(C)n(-c3ccccc3)c1=O)/C(=C/Nc1c(C)n(C)n(-c3ccccc3)c1=O)C(=O)C(O)=C2C(C)C")
"false"
>>> class_name("COc1ccc(N2C(=O)[C@H]3[C@H]4CC(C(C)(C)C)CC[C@H]4c4c(n(C)c5ccccc45)[C@H]3C2=O)cc1 (stereo not given in full)")
"false"

**Q:** Please share the test call associated with OC1c2ccccc2[C@@H]2[C@H]1[C@@H](c1ccccc1)C1(Cc3ccccc3C1O)[C@H]2c1ccccc1 (stereo not given in full) .
**A:** false

**Q:** Please share the test call associated with O=c1[nH]c2ccccc2c2nc3ccccc3n12 .
**A:** false

**Q:** Please share the test call associated with O=C(c1ccccc1)C(C(=O)c1ccccc1)C1(O)C(=O)c2ccccc2C1=O .
**A:** false

**Q:** Please share the test call associated with O=S(=O)(SCCCCSS(=O)(=O)c1ccc(Cl)cc1)c1ccc(Cl)cc1 .
**A:** false

**Q:** Please share the test call associated with S=C1OC2C3C4CC5C3C(O1)C1C5C4C21 (stereo not given) .
**A:** false

**Q:** Please share the test call associated with COc1ccc(OC)c(NC(=O)CCC/C(CC(=O)c2ccc(O)c(OC)c2)=N\NC(=O)C[N+](C)(C)C)c1 .
**A:** false

**Q:** Please share the test call associated with CC(=O)OC1(C(C)=O)CC2(c3ccccc3)OC1(c1ccccc1)c1ccccc12 (stereo not given) .
**A:** false

**Q:** Please share the test call associated with COC1(C)CCC(OS(C)(=O)=O)CO1 (stereo not given) .
**A:** false

**Q:** Please share the test call associated with Oc1ccc2cc(Br)ccc2c1-c1c(O)ccc2ccc(Br)cc12 .
**A:** false

**Q:** Please share the test call associated with Nc1c(-c2ccc(Cl)cc2Cl)[n+]([O-])c2ccccc2[n+]1[O-] .
**A:** false

**Q:** Please share the test call associated with OC(c1ccccc1)(c1cccnc1)C(O)(c1ccccc1)c1cccnc1 (stereo not given) .
**A:** false

**Q:** Please share the test call associated with Cc1cc([N+](=O)[O-])c(S(=O)(=O)c2ccccc2)c([N+](=O)[O-])c1 .
**A:** false

**Q:** Please share the test call associated with CC(C)NC(=O)CN1CCN(C2=C(Cl)C(=O)c3c(O)ccc(O)c3C2=O)CC1 .
**A:** true

**Q:** Please share the test call associated with CN(C)NC1=C([N+](=O)[O-])C=NN(c2ccccc2)C1 .
**A:** false

**Q:** Please share the test call associated with CC1(c2ccccc2)CC12C(=O)NC(=O)NC2=O (stereo not given) .
**A:** false

**Q:** Please share the test call associated with COc1ccc2[nH]c3cc4c(=O)c5cc(OC)ccc5[nH]c4cc3c(=O)c2c1 .
**A:** false

**Q:** Please share the test call associated with N#CC(C#N)/N=N/c1ccc(-c2nc3ccccc3[nH]2)cc1 .
**A:** false

====

# Test system: UO-31
# assay.comment: NCI tumour cell line growth inhibition, 48 h
Active and inactive are the calls of the source. No stated cut-off is given here; in the data, active = GI50 up to about 1.1 µM and inactive = higher.
Pick one: active, inactive

Please review the following examples before continuing.
>>> class_name("CC1=C[C@H](O)[C@@]2(C)[C@@H]([C@@H]1C)[C@H]1CC[C@@H]3[C@@]4(C)CC[C@H](O)C(C)(C)[C@@H]4CC[C@@]3(C)[C@]1(C)C[C@@H]2O")
"inactive"
>>> class_name("Cc1ccc(S(=O)(=O)c2c(N)n(CCN(C)C)c3nc4ccccc4nc23)cc1")
"inactive"
>>> class_name("N#CC(c1ccccc1)N(CCc1ccccc1)C(=O)c1ccc(C(=O)N(CCc2ccccc2)C(C#N)c2ccccc2)cc1 (configuration not stated)")
"inactive"
>>> class_name("COc1cc(-c2nc3ccccn3c2/N=C/c2cc(Br)cc(Br)c2O)ccc1O")
"inactive"
>>> class_name("CCN(CC)CCN(/C(=N/c1ccccc1)N1CCOCC1)c1ccccc1")
"inactive"
>>> class_name("O=[N+]([O-])c1cccc(-c2csc(N/N=C3\\NC/C(=C/c4ccc5c(c4)OCO5)S3)n2)c1")
"inactive"
>>> class_name("Oc1ccc(/C=N/NC(=S)Nc2cccnc2)nc1")
"inactive"
>>> class_name("Cc1cc2c(cc1Cl)SC(NNCCO)=NS2(=O)=O")
"inactive"

**Q:** Please share the test call associated with CN(C)c1nc(N(C)C)nc(N(C)C)n1 .
**A:** inactive

**Q:** Please share the test call associated with COc1ccc(-c2nnc(CCCCCCCCc3nnc(-c4ccc(OC)cc4)n3N)n2N)cc1 .
**A:** inactive

**Q:** Please share the test call associated with O=C(c1ccccc1)C(C(=O)c1ccccc1)C1(O)C(=O)c2ccccc2C1=O .
**A:** inactive

**Q:** Please share the test call associated with CN(C)c1ccc2c(c1)C(=O)N(OS(=O)(=O)c1ccc([N+](=O)[O-])cc1)C2=O .
**A:** inactive

====

# Tested on: A498
# assay.comment: NCI tumour cell line growth inhibition, 48 h
Calls of active or inactive are those of the source. No stated cut-off is given here; in the data, active = GI50 up to about 1.1 µM and inactive = higher.
readout.name: GI50

Field: example entries. Status: answers known.
>>> experimental_value("Nc1ccc2nc(-c3cccc(C(F)(F)F)c3)cc(O)c2c1")
"29.1 µM (inactive)"
>>> experimental_value("COC1(C)CCC(OS(C)(=O)=O)CO1 (centres undefined)")
"> 100 µM (inactive)"
>>> experimental_value("COC(=O)C(=O)C(C(=O)C=C(C)C)C(=O)C(=O)Nc1nc2ccc([N+](=O)[O-])cc2s1 (centres undefined)")
"30.5 µM (inactive)"

**Q:** # GI50 lookup, item C/C(CCn1[nH]c(=O)ccc1=O)=N\N=C(N)N
**A:** > 100 µM (inactive)

**Q:** # GI50 lookup, item O=[N+]([O-])c1cccc(-c2csc(N/N=C3\NC/C(=C/c4ccc5c(c4)OCO5)S3)n2)c1
**A:** 15.2 µM (inactive)

**Q:** # GI50 lookup, item CC(=O)OCCc1cc2ccccc2oc1=O
**A:** > 100 µM (inactive)

**Q:** # GI50 lookup, item Cc1cc(Cl)ccc1NC(=O)CC/C(CC(=O)C(C)C)=N\NC(=O)C[n+]1ccccc1
**A:** > 100 µM (inactive)

**Q:** # GI50 lookup, item CN(C)CCNC(=O)c1cc(Cl)cc2ccc(-c3ccccc3)nc12
**A:** 5.48 µM (inactive)

**Q:** # GI50 lookup, item O=[N+]([O-])c1ccc(C2=NN(c3ccccc3)C[N+](c3ccc(Br)cc3)=N2)cc1
**A:** > 100 µM (inactive)

**Q:** # GI50 lookup, item CN1c2ccccc2S(=O)(=O)n2c(CCc3ccccc3)nnc21
**A:** 39.1 µM (inactive)

**Q:** # GI50 lookup, item CCOC(=O)/C(C#N)=C/c1ccc(SCc2ccco2)c([N+](=O)[O-])c1
**A:** > 100 µM (inactive)

**Q:** # GI50 lookup, item CCOP(=O)(OCC)C(C(=O)OC)C(=O)C(=O)Nc1cccc(O)c1 (centres undefined)
**A:** > 100 µM (inactive)

**Q:** # GI50 lookup, item CN(C)/C=N\c1nncc2[nH]nnc12
**A:** > 100 µM (inactive)

**Q:** # GI50 lookup, item C=CCC(O[Si](C)(C)C(C)(C)C)c1cc(O[Si](C)(C)C(C)(C)C)ccc1OC (centres undefined)
**A:** 46.9 µM (inactive)

**Q:** # GI50 lookup, item COC(=O)CCCC(=O)O
**A:** > 100 µM (inactive)

**Q:** # GI50 lookup, item O=c1[nH]nc(-c2ccccc2)n1-n1cnnc1
**A:** > 100 µM (inactive)

**Q:** # GI50 lookup, item Cc1cc(O)c(C(C)C)cc1/N=C/c1ccccc1O
**A:** 23.6 µM (inactive)

**Q:** # GI50 lookup, item COc1ccc(-c2c(C(C)=O)c(-c3ccccc3)n(C3OC(CO)C(O)C(O)C3O)c(=S)c2C#N)cc1 (centres undefined)
**A:** > 100 µM (inactive)

**Q:** # GI50 lookup, item COc1cccc(/C=C2\N=C(Cl)OC2=O)c1O
**A:** > 100 µM (inactive)
